- test context: in n-butanol, 278.15 K
measured metric: solubility (mole fraction)

structure: CC(=NC#N)N(C)Cc1ccc(Cl)nc1
recorded number: 0.00149

* * *

- test context: in isopropanol, 318.15 K
measured metric: solubility (mole fraction)

structure: CC(=NC#N)N(C)Cc1ccc(Cl)nc1
result: 0.0221

* * *

- test context: in DMF, 318.15 K
measured metric: solubility (mole fraction)

structure: CC(=NC#N)N(C)Cc1ccc(Cl)nc1
measured metric: solubility (mole fraction)
recorded number: 0.542

* * *

- test context: in ethanol, 318.15 K

structure: CC(=NC#N)N(C)Cc1ccc(Cl)nc1
solubility (mole fraction): 0.0572

* * *

- test context: in DMF, 283.15 K
measured metric: solubility (mole fraction)

structure: CC(=NC#N)N(C)Cc1ccc(Cl)nc1
recorded number: 0.201

* * *

- test context: in NMP, 288.15 K

structure: CC(=NC#N)N(C)Cc1ccc(Cl)nc1
solubility (mole fraction): 0.255

* * *

- test context: in ethylene glycol, 288.15 K

structure: CC(=NC#N)N(C)Cc1ccc(Cl)nc1
solubility (mole fraction): 0.0134

* * *

- test context: in NMP, 298.15 K
measured metric: solubility (mole fraction)

structure: CC(=NC#N)N(C)Cc1ccc(Cl)nc1
recorded number: 0.352

* * *

- test context: in 1,4-dioxane, 308.15 K
measured metric: solubility (mole fraction)

structure: CC(=NC#N)N(C)Cc1ccc(Cl)nc1
measured metric: solubility (mole fraction)
recorded number: 0.132

* * *

- test context: in isobutanol, 298.15 K

structure: CC(=NC#N)N(C)Cc1ccc(Cl)nc1
solubility (mole fraction): 0.00519

* * *

- test context: in isopropanol, 293.15 K

structure: CC(=NC#N)N(C)Cc1ccc(Cl)nc1
solubility (mole fraction): 0.0108

* * *

- test context: in isopropanol, 303.15 K

structure: CC(=NC#N)N(C)Cc1ccc(Cl)nc1
solubility (mole fraction): 0.0147

* * *

- test context: in ethanol, 288.15 K

structure: CC(=NC#N)N(C)Cc1ccc(Cl)nc1
solubility (mole fraction): 0.0232

* * *

- test context: in ethylene glycol, 283.15 K

structure: CC(=NC#N)N(C)Cc1ccc(Cl)nc1
solubility (mole fraction): 0.0106

* * *

- test context: in water, 283.15 K
measured metric: solubility (mole fraction)

structure: CC(=NC#N)N(C)Cc1ccc(Cl)nc1
measured metric: solubility (mole fraction)
result: 0.000173

* * *

- test context: in acetone, 278.15 K
measured metric: solubility (mole fraction)

structure: CC(=NC#N)N(C)Cc1ccc(Cl)nc1
measured metric: solubility (mole fraction)
result: 0.104

* * *

- test context: in isopropanol, 298.15 K
measured metric: solubility (mole fraction)

structure: CC(=NC#N)N(C)Cc1ccc(Cl)nc1
recorded number: 0.0127

* * *

- test context: in 1,4-dioxane, 288.15 K
measured metric: solubility (mole fraction)

structure: CC(=NC#N)N(C)Cc1ccc(Cl)nc1
recorded number: 0.0693

* * *

- test context: in water, 308.15 K

structure: CC(=NC#N)N(C)Cc1ccc(Cl)nc1
solubility (mole fraction): 0.000572

* * *

- test context: in n-butanol, 303.15 K
measured metric: solubility (mole fraction)

structure: CC(=NC#N)N(C)Cc1ccc(Cl)nc1
measured metric: solubility (mole fraction)
result: 0.00337

* * *

- test context: in ethanol, 293.15 K

structure: CC(=NC#N)N(C)Cc1ccc(Cl)nc1
solubility (mole fraction): 0.0284
